Test: Signal strength differences due to reaction pH and buffer composition (hydrogen peroxide, D-cysteine conversion, LDR)
Type: biochemical
Settings: KPO4 pH 9.2, 15 minutes, 100 μl of 10 μM H2O2 added

# COMPOUND, Net Average Signals at 15 Minutes
records = [
    ("CC1(C)OB(c2ccc(COc3ccc4nc(C#N)sc4c3)cc2)OC1(C)C [PBI 4472]", "400,087 RLU"),
    ("CC1(C)OB(c2ccc(COc3ccc4nc(C#N)sc4c3)c3ccccc23)OC1(C)C [PBI 4480]", "37,330 RLU"),
    ("CC1(C)OB(/C=C/COc2ccc3nc(C#N)sc3c2)OC1(C)C [PBI 4458]", "937,111 RLU"),
    ("CC1(C)OB(c2ccc(COc3ccc4nc(C#N)sc4c3)cc2F)OC1(C)C [PBI 4481]", "189,573 RLU"),
]
